Each item that follows carries a reported Raw Data.
- Target: CCR4 (Homo sapiens, UniProt P51679)
- Construct: host or cells: CHO-K1
- Sequence (P51679 1-360): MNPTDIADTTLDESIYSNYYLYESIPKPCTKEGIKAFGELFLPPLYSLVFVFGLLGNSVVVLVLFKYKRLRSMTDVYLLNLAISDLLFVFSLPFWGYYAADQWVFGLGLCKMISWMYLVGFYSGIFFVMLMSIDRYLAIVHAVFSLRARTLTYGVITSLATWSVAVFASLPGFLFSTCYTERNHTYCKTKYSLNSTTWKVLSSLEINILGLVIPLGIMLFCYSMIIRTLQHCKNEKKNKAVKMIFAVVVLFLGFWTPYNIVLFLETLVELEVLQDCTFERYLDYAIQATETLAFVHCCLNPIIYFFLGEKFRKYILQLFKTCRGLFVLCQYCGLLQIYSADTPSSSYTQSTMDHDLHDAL
- Protocol: PathHunter eXpress CCR4 CHO-K1 β-Arrestin GPCR Assay, agonist format
- Type: cell-based
- Condition Set: high concentration, 0.008 uM

Chain	Target	Raw Data
ACQLTCLPPPRQPGCA [24-15-00-N001, bicyclic peptide ligand, TATA scaffold, from CCR4 cell-based selection]	CCR4 (Homo sapiens, UniProt P51679)	12079
ACRAVHSLRCLTTCA [24-17-00-N001, bicyclic peptide ligand, TATA scaffold, from CCR4 cell-based selection]	CCR4 (Homo sapiens, UniProt P51679)	13248
ACQTLCNTAEDIRCA [24-16-00-N001, bicyclic peptide ligand, TBMB scaffold, from CCR4 cell-based selection]	CCR4 (Homo sapiens, UniProt P51679)	12502

====

- Target: CCR4 (Homo sapiens, UniProt P51679)
- Construct: host or cells: CHO-K1
- Sequence (P51679 1-360): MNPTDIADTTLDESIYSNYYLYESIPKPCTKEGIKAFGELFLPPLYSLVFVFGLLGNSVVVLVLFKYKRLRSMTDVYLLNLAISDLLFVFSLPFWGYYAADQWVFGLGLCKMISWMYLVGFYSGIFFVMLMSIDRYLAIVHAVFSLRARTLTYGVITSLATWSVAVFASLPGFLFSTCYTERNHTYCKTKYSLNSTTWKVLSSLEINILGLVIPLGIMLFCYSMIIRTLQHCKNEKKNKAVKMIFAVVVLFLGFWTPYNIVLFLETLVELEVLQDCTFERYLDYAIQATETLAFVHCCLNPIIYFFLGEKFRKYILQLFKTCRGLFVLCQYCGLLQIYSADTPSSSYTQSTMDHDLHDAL
- Protocol: PathHunter eXpress CCR4 CHO-K1 β-Arrestin GPCR Assay, antagonist format with CCL22
- Type: cell-based
- Condition Set: 10 nM CCL22, 0.023 uM
Each item that follows carries a reported Raw Data.
Result Type: Raw Data

Chain	Target	Observed Result
ACRAVHSLRCLTTCA [24-17-00-N001, bicyclic peptide ligand, TATA scaffold, from CCR4 cell-based selection]	CCR4 (Homo sapiens, UniProt P51679)	164921
ACQLTCLTPARQPGCA [24-14-00-N001, bicyclic peptide ligand, TATA scaffold, from CCR4 cell-based selection]	CCR4 (Homo sapiens, UniProt P51679)	159753
ACLNGCRNTNSQCA [24-11-00-N001, bicyclic peptide ligand, TATA scaffold, from CCR4 cell-based selection]	CCR4 (Homo sapiens, UniProt P51679)	154833
ACPLMSSVNCTAGCA [24-13-00-N001, bicyclic peptide ligand, TBMB scaffold, from CCR4 cell-based selection]	CCR4 (Homo sapiens, UniProt P51679)	183445
ACQLTCLPPPRQPGCA [24-15-00-N001, bicyclic peptide ligand, TATA scaffold, from CCR4 cell-based selection]	CCR4 (Homo sapiens, UniProt P51679)	163145
ACLSCARHGNQCA [24-12-00-N001, bicyclic peptide ligand, TATA scaffold, from CCR4 cell-based selection]	CCR4 (Homo sapiens, UniProt P51679)	176223
ACQTLCNTAEDIRCA [24-16-00-N001, bicyclic peptide ligand, TBMB scaffold, from CCR4 cell-based selection]	CCR4 (Homo sapiens, UniProt P51679)	158472

====

- Target: CCR4 (Homo sapiens)
- Construct: host or cells: CHO-K1
- Sequence (P51679 1-360): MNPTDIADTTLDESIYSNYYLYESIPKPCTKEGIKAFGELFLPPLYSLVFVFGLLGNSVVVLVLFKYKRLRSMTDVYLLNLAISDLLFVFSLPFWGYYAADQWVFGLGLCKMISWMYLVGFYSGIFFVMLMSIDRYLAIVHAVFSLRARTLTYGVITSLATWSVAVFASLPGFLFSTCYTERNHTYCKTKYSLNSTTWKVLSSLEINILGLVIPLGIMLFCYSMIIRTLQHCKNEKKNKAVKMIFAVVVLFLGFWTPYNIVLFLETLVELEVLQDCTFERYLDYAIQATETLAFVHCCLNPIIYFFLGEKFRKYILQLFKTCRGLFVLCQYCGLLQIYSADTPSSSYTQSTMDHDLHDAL
- Protocol: PathHunter eXpress CCR4 CHO-K1 β-Arrestin GPCR Assay, agonist format
- Format: cell-based
- Condition Set: 375 nM
- Description: The aim of the present experiment was to analyze if if these peptides are functional using a Discoverx Assay, the Beta-Arrestin recruitment assay, to identify agonism or antagonism in the selected peptides. Standard protocols used: • PathHunter® eXpress CCR4 CHO-K1 β-Arrestin GPCR Assay. 100 dp (1×96-well) The experiment was carried using the manufacturer instructions. The concentration was increased to test for response at high concentration.
Each item that follows carries a reported Raw Data.
Result Type: Raw Data

Chain	Observed Result
ACPLMSSVNCTAGCA [24-13-00-N001, bicyclic peptide ligand, TBMB scaffold, from CCR4 cell-based selection]	20081
ACRAVHSLRCLTTCA [24-17-00-N001, bicyclic peptide ligand, TATA scaffold, from CCR4 cell-based selection]	22611
ACQTLCNTAEDIRCA [24-16-00-N001, bicyclic peptide ligand, TBMB scaffold, from CCR4 cell-based selection]	20361
ACLNGCRNTNSQCA [24-11-00-N001, bicyclic peptide ligand, TATA scaffold, from CCR4 cell-based selection]	19528
ACLSCARHGNQCA [24-12-00-N001, bicyclic peptide ligand, TATA scaffold, from CCR4 cell-based selection]	22486
ACQLTCLTPARQPGCA [24-14-00-N001, bicyclic peptide ligand, TATA scaffold, from CCR4 cell-based selection]	20214
ACQLTCLPPPRQPGCA [24-15-00-N001, bicyclic peptide ligand, TATA scaffold, from CCR4 cell-based selection]	24222

====

- Target: CCR4 (Homo sapiens, UniProt P51679)
- Construct: host or cells: CHO-K1
- Sequence (P51679 1-360): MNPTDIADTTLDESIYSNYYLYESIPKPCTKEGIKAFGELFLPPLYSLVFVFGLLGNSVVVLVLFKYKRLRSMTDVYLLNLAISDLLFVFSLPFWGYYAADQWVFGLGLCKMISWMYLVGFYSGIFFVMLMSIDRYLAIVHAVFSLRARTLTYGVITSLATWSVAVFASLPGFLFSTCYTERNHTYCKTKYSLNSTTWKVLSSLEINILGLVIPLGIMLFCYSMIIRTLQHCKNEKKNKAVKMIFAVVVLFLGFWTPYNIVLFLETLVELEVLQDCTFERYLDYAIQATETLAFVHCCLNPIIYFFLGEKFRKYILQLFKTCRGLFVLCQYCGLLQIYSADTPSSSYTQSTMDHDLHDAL
- Protocol: PathHunter eXpress CCR4 CHO-K1 β-Arrestin GPCR Assay, antagonist format with CCL22
- Type: cell-based
- Condition Set: 1 nM CCL22, 50 uM
Each item that follows carries a reported Raw Data.
Result Type: Raw Data

Chain	Target	Observed Result
ACQLTCLTPARQPGCA [24-14-00-N001, bicyclic peptide ligand, TATA scaffold, from CCR4 cell-based selection]	CCR4 (Homo sapiens, UniProt P51679)	102610
ACLSCARHGNQCA [24-12-00-N001, bicyclic peptide ligand, TATA scaffold, from CCR4 cell-based selection]	CCR4 (Homo sapiens, UniProt P51679)	101311
ACLNGCRNTNSQCA [24-11-00-N001, bicyclic peptide ligand, TATA scaffold, from CCR4 cell-based selection]	CCR4 (Homo sapiens, UniProt P51679)	85131

====

Each item that follows carries a reported Raw Data.
- Target: CCR4 (Homo sapiens, UniProt P51679)
- Construct: host or cells: CHO-K1
- Protocol: PathHunter eXpress CCR4 CHO-K1 β-Arrestin GPCR Assay, agonist format
- Type: cell-based
- Condition Set: 4.6 nM

Chain	Raw Data
ACQLTCLPPPRQPGCA [24-15-00-N001, bicyclic peptide ligand, TATA scaffold, from CCR4 cell-based selection]	27635
ACLNGCRNTNSQCA [24-11-00-N001, bicyclic peptide ligand, TATA scaffold, from CCR4 cell-based selection]	26096
ACPLMSSVNCTAGCA [24-13-00-N001, bicyclic peptide ligand, TBMB scaffold, from CCR4 cell-based selection]	29431
ACQTLCNTAEDIRCA [24-16-00-N001, bicyclic peptide ligand, TBMB scaffold, from CCR4 cell-based selection]	22899
ACRAVHSLRCLTTCA [24-17-00-N001, bicyclic peptide ligand, TATA scaffold, from CCR4 cell-based selection]	25017
ACLSCARHGNQCA [24-12-00-N001, bicyclic peptide ligand, TATA scaffold, from CCR4 cell-based selection]	28872
ACQLTCLTPARQPGCA [24-14-00-N001, bicyclic peptide ligand, TATA scaffold, from CCR4 cell-based selection]	27510
